Tested on: CAKI-1
Assay: Cytotoxicity against Homo sapiens (human) Caki1 assessed as cell growth at 10 uM after 48 hr by SRB assay relative to control
Assay type: functional
Details: CAKI-1, 48 h, read-out: Activity
Below, each of the compounds is paired with its reported growth at 10 µM value.
Write the number in % without appending the unit.

The examples below pair each entry with its known result.
Oc1c(-c2nnc(SCc3ccccc3)o2)sc2nnc(-c3ccccc3)c(-c3ccccc3)c12: 114
CCOC(=O)c1c(Nc2ccc(S(N)(=O)=O)cc2)nnc(-c2ccccc2)c1-c1ccccc1: 83.8
CC(=O)Oc1c(C2=NN(C(C)=O)C(c3ccccc3[N+](=O)[O-])O2)sc2nnc(-c3ccccc3)c(-c3ccccc3)c12 (stereo not given): 98
CNc1nnc(-c2sc3nnc(-c4ccccc4)c(-c4ccccc4)c3c2O)s1: 72
CSc1nnc(-c2sc3nnc(-c4ccccc4)c(-c4ccccc4)c3c2O)o1: 43.5
CC1=NN(C(=O)c2sc3nnc(-c4ccccc4)c(-c4ccccc4)c3c2O)C(=O)C1: 31
CCOC(=O)c1c(Nc2ccc(S(=O)(=O)Nc3nccs3)cc2)nnc(-c2ccccc2)c1-c1ccccc1: 107
Oc1c(-c2nnc(-c3ccccc3)o2)sc2nnc(-c3ccccc3)c(-c3ccccc3)c12: 29.1

Give recorded growth at 10 µM with CAKI-1 for the following compound: `Oc1c(-c2nnc(-c3ccc(Cl)cc3)o2)sc2nnc(-c3ccccc3)c(-c3ccccc3)c12`
24.5

Give recorded growth at 10 µM with CAKI-1 for the following compound: `Oc1c(-c2n[nH]c(=S)o2)sc2nnc(-c3ccccc3)c(-c3ccccc3)c12`
93.3
